- experimental target: CDK9/CycT (Homo sapiens, UniProt P50750)
- Sequence (P50750 whole entry): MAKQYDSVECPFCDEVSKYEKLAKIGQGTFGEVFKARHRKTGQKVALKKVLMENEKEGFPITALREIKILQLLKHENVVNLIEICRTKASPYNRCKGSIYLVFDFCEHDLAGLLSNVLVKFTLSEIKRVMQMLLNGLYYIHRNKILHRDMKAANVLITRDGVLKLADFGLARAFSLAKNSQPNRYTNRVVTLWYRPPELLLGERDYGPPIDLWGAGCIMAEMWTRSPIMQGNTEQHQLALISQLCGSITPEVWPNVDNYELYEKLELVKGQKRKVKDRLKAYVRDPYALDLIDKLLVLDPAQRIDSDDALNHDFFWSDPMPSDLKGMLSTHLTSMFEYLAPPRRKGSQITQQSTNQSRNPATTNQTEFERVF
- Sequence (O60563 whole entry partner): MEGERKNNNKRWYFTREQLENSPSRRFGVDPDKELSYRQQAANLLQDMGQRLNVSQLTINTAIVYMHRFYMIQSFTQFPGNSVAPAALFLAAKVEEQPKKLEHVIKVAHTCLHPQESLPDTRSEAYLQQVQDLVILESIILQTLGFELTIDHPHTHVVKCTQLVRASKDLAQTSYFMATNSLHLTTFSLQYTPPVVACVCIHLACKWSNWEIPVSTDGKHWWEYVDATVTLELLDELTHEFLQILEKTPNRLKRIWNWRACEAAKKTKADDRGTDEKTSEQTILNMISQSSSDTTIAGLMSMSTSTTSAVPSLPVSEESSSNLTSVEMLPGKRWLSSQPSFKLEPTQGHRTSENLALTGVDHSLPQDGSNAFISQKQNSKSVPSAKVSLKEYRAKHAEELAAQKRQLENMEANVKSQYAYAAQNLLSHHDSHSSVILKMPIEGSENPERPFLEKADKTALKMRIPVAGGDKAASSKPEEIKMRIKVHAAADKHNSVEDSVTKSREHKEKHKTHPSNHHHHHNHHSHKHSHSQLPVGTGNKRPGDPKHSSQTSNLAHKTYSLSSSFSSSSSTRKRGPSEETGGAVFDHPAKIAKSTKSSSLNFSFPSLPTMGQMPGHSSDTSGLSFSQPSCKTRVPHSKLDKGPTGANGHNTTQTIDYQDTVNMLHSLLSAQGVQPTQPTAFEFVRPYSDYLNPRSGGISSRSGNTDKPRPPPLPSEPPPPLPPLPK
- protocol details: In vitro kinase inhibition assay
- study conditions: 1 μM ATP, 33P FlashPlate assay
- Experimental: IC50 profiles of the compounds according to general Formula I or Ia of the present invention can be determined for cyclin-dependent kinases CDK2/CycA, CDK4/CycD1, CDK6/CycD1 and CDK9/CycT in enzymatic kinase inhibition assays in vitro. […] Reaction mixtures are incubated at 30° C. for 80 minutes. […] Incorporation of ^33P is determined with a microplate scintillation counter (Microbeta, Wallac). […]
property label: IC50 (nM)
Return type: number; implicit unit nM.

// IC50 lookup, molecule = COc1ccccc1-c1ccnc(Nc2cccc(S(C)(=O)=O)c2)n1 [Compound #133] , result: 37.6

Origin of values: patent US20080153822A1
